tested on: PYK2; construct: gene PTK2B; conditions: concentration: 1 μM,replicates: in singlicate; n = 1;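 further: KINOMEscan kinase panel screen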
Result Type: %Inh (%)
The reply should be a number in %, with the unit left off.

Assay PYK2, sample `Cc1ccc(C(=O)Nc2ccc(Oc3ccc4nc(NC(=O)C5CC5)cn4c3)c(F)c2)c(=O)n1-c1ccccc1` , %Inh read: 19

%Inh value, target or system PYK2, for `Cn1ccc2ncnc(Oc3ccc(NC(=O)Nc4ccnc(C(F)(F)F)c4)c(Cl)c3)c21` : 9

For Cc1n[nH]c2cc(Nc3ccnc(Nc4cccc(CN5CCOCC5)c4)n3)ccc12 [GW682569] on PYK2, measured %Inh was 0

Record O=C(Nc1n[nH]c2cc(-c3ccco3)ccc12)C1CC1 [SB-737447] ; system PYK2; %Inh = 23

Observed %Inh on PYK2, entry CN(c1ccc2c(c1)nc(NCc1ccc(F)cc1)n2C)c1ccnc(Nc2ccc(CS(C)(=O)=O)cc2)n1.Cl [GW813244] , equals 39

Measured %Inh (PYK2), entry N#Cc1cccc(C(=O)NC2CCN(c3ccnc(Nc4ccc(F)cc4)n3)C2)c1 (centres unmarked) [GSK1379708] : 3

Item `C[C@@H]1CNc2c(sc3ccc4nc(-c5ccncc5)ccc4c23)C(=O)N1` was tested on PYK2; the reported %Inh is 3

Entry Cc1ccn2nc(-c3ccc(F)cc3)c(-c3ccncc3)c2c1.Cl [GW457859] ; assay system PYK2; %Inh recorded at 0

Field %Inh (PYK2), entry `CC(=O)Nc1nc2cnc(Nc3cc(NC(=O)c4cccc(CC(C)(C)C#N)c4)ccc3C)nc2s1` : 9

Record `Cn1ccc2ncnc(Oc3ccc(NC(=O)Nc4cncc(C(F)(F)F)c4)c(Cl)c3)c21` / PYK2, %Inh recorded as 2

Reading of %Inh for COC(=O)c1cccc(NC(=O)NC2CCN(c3ccnc(Nc4cc(OC)c(OC)c(OC)c4)n3)C2)c1 (centres unmarked) [GSK1379767] with PYK2: 0

Reported PYK2 %Inh for item `O=C(Nc1ccccc1)c1cccc(Oc2ccc3nccn3n2)c1` was 0

Test item FC(F)(F)c1cc(Br)cc(Nc2nccc(-c3cnn4ncccc34)n2)c1 [GW810578] ; PYK2; reported %Inh was 80

# lookup: CS(=O)c1ccc(-c2coc3ccc(-c4n[nH]c(=O)o4)cc23)cc1 (centres unmarked) on PYK2, %Inh = 4

---

Give measured %Inh for each item. Keep answers brief.
test system: EPHB4; conditions: concentration: 1 μM,replicates: in singlicate; n = 1
Give the quantity in %, number only.

%Inh measured on `Cl.Cl.NC[C@H](CC1CCCCC1)NC(=O)c1ccc(-c2ccnc3[nH]ccc23)s1` = 14

The compound identified as `C[C@@H](Oc1cc(-n2cnc3cc(-c4cnn(C)c4)ccc32)sc1C(N)=O)c1ccccc1Cl` registered its %Inh at 19

`C[C@@H](Oc1cc(-n2cnc3cc(-c4ccncc4)ccc32)sc1C(N)=O)c1ccccc1Cl` has a reported %Inh of 12

Summary for this compound, `COc1cccc(C2=C(Nc3cccc(Cl)c3)C(=O)NC2=O)c1` : %Inh is 4

get_value(item= COc1cc(Nc2nccc(N3CCC(NC(=O)c4cccc(C#N)c4)C3)n2)cc(OC)c1OC (centres unmarked) , readout=%Inh) returns 19

---

system: TYRO3; conditions: concentration: 1 μM,replicates: in singlicate; n = 1
Result Type: %Inh
Please state the number and follow it with the unit.

Case `Cn1cc(-c2cccc3c(N)c(C(N)=O)nnc23)cn1` , TYRO3, %Inh recorded as 0%

The compound O=C(Nc1n[nH]c2cc(-c3ccco3)ccc12)C1CC1 [SB-737447] on TYRO3: %Inh was 0%

Bench note, TYRO3: entry `C[C@@H]1CNc2c(sc3ccc4nc(-c5ccncc5)ccc4c23)C(=O)N1` , its %Inh = 0%

With TYRO3 as the test system, CCCC(=O)Nc1n[nH]c2ncccc12 [SB-601436] showed %Inh of 0%

Per the reported TYRO3 data, Cc1ccc(Nc2ccnc(Nc3ccc4c(c3)CS(=O)(=O)C4)n2)cc1O.Cl [GW579362] has %Inh of 79%

Summary line: Cc1cccc(-c2nc(Nc3ccncc3)c3sccc3n2)n1 [GW869641] , TYRO3, reported %Inh = 0%

Entry Cl.c1ccc(Oc2ccc(Nc3ccnc4cc(-c5ccc(CN6CCNCC6)o5)ccc34)cc2)nc1 [GW567142] : %Inh on TYRO3 = 0%

Entry `Cn1ccc2ncnc(Oc3ccc(NC(=O)Nc4cc(C(C)(C)C)on4)c(Cl)c3)c21` ; assay system TYRO3; %Inh recorded at 28%

Response field %Inh (TYRO3) for item `O=C(Nc1ccccc1)c1cccc(Oc2ccc3nccn3n2)c1` : 29%

The recorded %Inh with TYRO3 for CS(=O)(=O)Nc1ccc(-c2ccnc3[nH]ccc23)cc1 [GSK993273] was 0%

Observed %Inh on TYRO3, entry `Cn1ccc2ncnc(Oc3ccc(NC(=O)Nc4cccc(C(F)(F)F)c4)c(Cl)c3)c21` , equals 0%

Bench note, TYRO3: entry Cc1ccc2c(-c3ccnc(Nc4ccc(C(F)(F)F)cc4)n3)cnn2n1 [GW819776] , its %Inh = 0%

Measured on TYRO3, CN1CCN(CCNc2nc3cc(Oc4ccc(NC(=O)Nc5cc(C(F)(F)F)ccc5F)cc4)ccc3[nH]2)CC1.Cl.Cl [GW768504] has a documented %Inh of 0%

Fill in: TYRO3 %Inh for CS(=O)c1ccc(-c2coc3ccc(-c4n[nH]c(=O)o4)cc23)cc1 (centres unmarked) = 0%

Fill in: TYRO3 %Inh for `Cn1ccc2ncnc(Oc3ccc(NC(=O)Nc4cccc(C(F)(F)F)c4)c(F)c3)c21` = 3%

Value (%Inh, TYRO3) for record `C[C@@H]1CNc2c(sc3ccc4nc(-c5ccc(O)cc5)ccc4c23)C(=O)N1` = 0%

%Inh on TYRO3 for Cc1ccn2nc(-c3ccc(F)cc3)c(-c3ccncc3)c2c1.Cl [GW457859] is 0%

The reported %Inh value, TYRO3, for COc1cc(Nc2nccc(N3CCC(NC(=O)c4cccc(C#N)c4)C3)n2)cc(OC)c1OC (centres unmarked) [GSK1379751] reads 0%

# lookup: `Cn1ccc2ncnc(Oc3ccc(NC(=O)Nc4ccnc(C(F)(F)F)c4)c(Cl)c3)c21` on TYRO3, %Inh = 0%

I looked up `CC(=O)Nc1nc2cnc(Nc3cc(NC(=O)c4cccc(CC(C)(C)C#N)c4)ccc3C)nc2s1` and its %Inh for TYRO3 was 0%

---

system: CHEK2; details: concentration: 1 μM,replicates: in singlicate; n = 1
Result Type: %Inh (%)
Give a bare numeral; the unit % is implied.

The compound COc1cc(Nc2nccc(N3CCC(NC(=O)c4cccc(C#N)c4)C3)n2)cc(OC)c1OC (centres unmarked) [GSK1379751] showed %Inh equal to 0

Lookup result for Cc1ccc(Nc2ccnc(Nc3ccc4c(c3)CS(=O)(=O)C4)n2)cc1O.Cl [GW579362] ; measured %Inh: 14

In plain terms, `O=C(Nc1cccc(C(F)(F)F)c1)c1cccc(Oc2ccc3nccn3n2)c1` has a documented %Inh of 0

// recorded %Inh for Cl.Cl.NC[C@H](CC1CCCCC1)NC(=O)c1ccc(-c2ccnc3[nH]ccc23)s1 [GSK1581428] : 27

The compound `C[C@@H]1CNc2c(sc3ccc4nc(-c5ccc(O)cc5)ccc4c23)C(=O)N1` showed %Inh equal to 54

---

system: CDC2L5; construct: gene CDK13; conditions: concentration: 1 μM,replicates: in singlicate; n = 1
Result Type: %Inh (%)
Give just the numeric value; % need not be written.

Measured on CDC2L5, `CS(=O)(=O)c1cccc(CNc2nc(Nc3ccc4c(c3)[C@@H]3C[C@@H]4CNC3=O)ncc2C(F)(F)F)c1` has a documented %Inh of 2

Field %Inh (CDC2L5), entry `Cc1ccc2c(-c3ccnc(Nc4ccc(C(F)(F)F)cc4)n3)cnn2n1` : 0

# lookup: `CSc1nccc(-c2c(-c3ccc(F)cc3)ncn2CCCN2CCOCC2)n1.Cl` on CDC2L5, %Inh = 0

Reading of %Inh for `NC(=O)c1ccc(-c2cc3ncnc(SCC(=O)O)c3s2)cc1` with CDC2L5: 0

Per the reported CDC2L5 data, `CC(=O)Nc1nc2cnc(Nc3cc(NC(=O)c4cccc(CC(C)(C)C#N)c4)ccc3C)nc2s1` has %Inh of 66

Let me check: `CCN1CCN(CCCC(=O)Nc2n[nH]c3nc(-c4ccc(O)cc4)c(Br)cc23)CC1` , system CDC2L5, measured %Inh is 0

Known value: CDC2L5 %Inh of the compound `O=C(Nc1n[nH]c2cc(-c3ccco3)ccc12)C1CC1` equals 19

Record for `Cc1ccc(C(=O)Nc2ccc(Oc3ccc4nc(NC(=O)C5CC5)cn4c3)c(F)c2)c(=O)n1-c1ccccc1` under target or system CDC2L5: %Inh reported as 0

I looked up `Cl.Nc1n[nH]c2cc(-c3ccccn3)ccc12` and its %Inh for CDC2L5 was 0

Measured %Inh for this entry `C[C@@H]1CCN(C(=O)N2CCCC2)C[C@@H]1N(C)c1ncnc2[nH]ccc12` on CDC2L5: 6

Readout %Inh for COc1cccc(CNC(=O)NC2CCN(c3ccnc(Nc4cc(OC)c(OC)c(OC)c4)n3)C2)c1 (centres unmarked) , test system CDC2L5, was 0

Case `CN(c1ccccc1CNc1nc(Nc2ccc3c(c2)CC(=O)N3)ncc1C(F)(F)F)S(C)(=O)=O` , CDC2L5, %Inh recorded as 0

Sample Cc1nnc(-c2ccc3occ(-c4ccc(S(C)=O)cc4)c3n2)o1 (centres unmarked) , system: CDC2L5. Its %Inh is 0

Record `COc1cc2ncn(-c3cc(OCC4CCCCC4)c(C(N)=O)s3)c2cc1OC` / CDC2L5, %Inh recorded as 0

Result for `CN(c1cccc(CNc2nc(Nc3ccc4c(c3)CC(=O)N4)ncc2C(F)(F)F)c1)S(C)(=O)=O` , tested on CDC2L5, %Inh: 0

Given the compound `Cc1ccn2nc(-c3ccc(F)cc3)c(-c3ccncc3)c2c1.Cl` and test system CDC2L5, the measured %Inh is 0

Bench note, CDC2L5: `Cn1ccc2ncnc(Oc3ccc(NC(=O)Nc4cccc(C(F)(F)F)c4)c(F)c3)c21` , %Inh reads 33

Field %Inh (CDC2L5), entry `CC(=O)Nc1ccc(-c2cc3ncnc(SCC(=O)O)c3s2)cc1` : 0

// %Inh (CDC2L5) for `NC(=O)Nc1sc(-c2ccc(F)cc2)cc1C(N)=O` = 14

The measured %Inh that N#Cc1cccc(C(=O)NC2CCN(c3ccnc(Nc4ccc(F)cc4)n3)C2)c1 (centres unmarked) showed for CDC2L5 is 0

%Inh value, target or system CDC2L5, for `O=C(Nc1cccc(C(F)(F)F)c1)c1cccc(Oc2ccc3nccn3n2)c1` : 0

Field %Inh (CDC2L5), entry COc1cc(Nc2nccc(N3CCC(NC(=O)c4cccc(C#N)c4)C3)n2)cc(OC)c1OC (centres unmarked) : 0

Entry `COc1cc2c(Nc3ccc(NC(=O)c4ccccc4)cc3)ncnc2cc1OCCCN1CCOCC1` : %Inh on CDC2L5 = 0

Observed %Inh, CDC2L5, `C[C@@H]1CNc2c(sc3ccc4nc(-c5ccc(O)cc5)ccc4c23)C(=O)N1` : 0

The reported CDC2L5 %Inh of `O=C(Nc1ccccc1)c1cccc(Oc2ccc3nccn3n2)c1` is 0

Field %Inh (system: CDC2L5) for entry `Cc1ccc(Nc2ccnc(Nc3ccc4c(c3)CS(=O)(=O)C4)n2)cc1O.Cl` = 0

The measured %Inh that `COC(=O)c1cccc(NC(=O)NC2CCN(c3ccnc(NCc4ccc(F)cc4)n3)CC2)c1` showed for CDC2L5 is 0

Field %Inh (CDC2L5), entry `FC(F)(F)c1cc(Br)cc(Nc2nccc(-c3cnn4ncccc34)n2)c1` : 0

Entry `Cc1cccc2c(-c3ccncc3)c(-c3ccc(F)cc3)nn12.Cl` , tested on CDC2L5, has a reported %Inh of 0

Record `CNC(=O)c1ccccc1Nc1nc(Nc2cccc(CS(C)(=O)=O)c2)ncc1C.O=CO` has CDC2L5 %Inh equal to 0

Let me check: `CCOC(=O)N1CCC(n2cnc(-c3ccc(F)cc3)c2-c2ccnc(N)n2)CC1` , system CDC2L5, measured %Inh is 30

Record for `COC(=O)Nc1nc2cc(Oc3ccc(NC(=O)Nc4cc(C(F)(F)F)ccc4Cl)cc3)ccc2[nH]1.Cl` under target or system CDC2L5: %Inh reported as 6

Noted %Inh for `Nc1nccc(-c2ccc3c(N)n[nH]c3c2)n1` , tested on CDC2L5: 0

Here `Cc1ccc(CC(=O)N2CCc3cc(-c4cn(C)c5ncnc(N)c45)ccc32)cc1` was tested on CDC2L5, and its %Inh came to 0

%Inh of `CC(C)S(=O)(=O)N1CCN(Cc2ccc3c(c2)nc(NC(=O)c2ccsc2)n3C[C@H](O)c2ccccc2)CC1` , assay on CDC2L5, is 0
